Assay: yeast display, Sf9 membrane polyspecificity reagent, FACS + sequencing; frameworks hold sequencing errors
readout: polyreactivity (PSR sort gate)

Some solved entries appear below for comparison.
input_sequence=QVQHVESGGGLVQAGGSLRLSCAASGRTFIINTMGWYRQAPGKERELVAAISKFGATTNYADSVKGRFTISRDNAKNTVYLQMNSLKPEDTAVYYCNARYSGYLRLDYWGQGTQVTVSS result="low polyreactivity"
input_sequence=QVQLVESGGGLVQAGGSLRLSCAASGFTFNGYAMGWYRQAPGKERELVAGITRRGGITYYADSVKGRFTISRDNAKNTVYLQMNCLKPEDTAVYYCARDYIGHALIHHASLYYYWGQGTQVTVSS result="high polyreactivity"
input_sequence=QVQLVESGGGLVQAGGSLRLSCAASGRLFKRYNMGWYRQGPGKDRELVAAIRSGGSTNYADSVKGRFTISRDNAKNTVYLPMNSLKPEDTAVYYCAARSTAYRGGSYAYDYWGQGTQVTVSS result="high polyreactivity"
input_sequence=QVQLQESGGGLVQAGGSLRLSCAASGTISDSGLKGWYRQAPGIERELVAGISSGGITNYADSVKGRFTISRDNAQNTVYLQMNSLKPVDTAVYWGQGTQLTVSS result="low polyreactivity"

What measured polyreactivity (PSR sort gate) goes with "QVQLVESGGGLVQAGGSLRLSCAASGRIFNKNAMGWYRQAPGKERELVAAITYSGGSTYYADSVKGRFTISRDNAKNTVYLQMNSLKPEDTAVYYCARDLYYVYSFAPYRYEYWGQGTQLTVSS" ?
low polyreactivity

----------
Experiment: yeast display, Sf9 membrane polyspecificity reagent, FACS + sequencing; frameworks hold sequencing errors
readout: polyreactivity (PSR sort gate)

input_sequence=QVQLVESGGGLVQAGGTLRLSCAASGIIFSFYTMGWYRQAPGKERELVAAITWSGGSTYYADSVKGRFTISRANAKNTVYLQMNSLKPEDTAVYYCNARNPWRKRSQGYSWGQGTQVTVSS result="low polyreactivity"
input_sequence=QVQLVESGGGLVQAGGSLRLSCAASGRIFDIYAMGWYRQAPGKERELVASISWSGDSTYYADSVKGRFTISRDNAKNTVYLEMNSLKPEDTAVYYCAAEGEDTEGYDYDYWGQGTQVTVSS result="low polyreactivity"

----------
Assay: yeast display, Sf9 membrane polyspecificity reagent, FACS + sequencing; frameworks hold sequencing errors
readout: polyreactivity (PSR sort gate)

input_sequence=QVQLVESGGGLVQAGGSLRLSCAASGSTCRPYVMGWFRQAPGKERELVAAISWRGGTTYYADSVKGRFTISRDNAKNTVSLQMNSLKPEDTAVYYCAARGDQGVPVARRYDYWGQGSQVTVSS readout="polyreactivity (PSR sort gate)" result="high polyreactivity"
input_sequence=QVQLVESGGGLVQAGGSLRLSCAASGSIITWNAMGWYRQAPGKERELVAAIDWDGGSTYYADSVKGRFTISRDNAKNTVYLQMNSLKPEDTAVYYCAATYGWYTGRYPSGHYYYWGQGTQVTVSS readout="polyreactivity (PSR sort gate)" result="low polyreactivity"
input_sequence=QFQLVESGRGLVQAGGSLRLSCAASGSIFYAYAMGWYRKAPGKEREFVAVISYSGGSTYYADSVQGRFTISRDKAKNTVYLQMNSLKPEDTAVYYCAARYRAWSGNYWGQGTQVTVSS readout="polyreactivity (PSR sort gate)" result="high polyreactivity"
input_sequence=QVQLVESGGGLVQAGGSLRLSCAASGYAMGWYRQAPGKERELVAAISWSGDITYADSVKGRFTISRDNAKNTVYLQMNSLKPEDTAVYYCNADRYTGRDGEQSLDYWGQGTQVTVSS readout="polyreactivity (PSR sort gate)" result="low polyreactivity"
input_sequence=QVQLVESGGGLVQAGGSLRLSCAASGFIFRKYVMGWYRQAPGKERELVAAITRSGTSTYYADSVKGRFTISRDNAKNTVYLQMNSLKPEDNAVYYCNVGSDGWYYWGQGTQVTVSS readout="polyreactivity (PSR sort gate)" result="low polyreactivity"

I have this sequence here, "QVQLVESGGGLVHAGRSLLLSCAASGRTYRLDAMGWYRQSPGKERELVAAITRGGRTNYADSVKGRFTISRDNAKNTFYLQMNSLKPEDTAVYYCADRYVERPTDYYYWGQGTQVTVSS" , and I need its recorded polyreactivity (PSR sort gate).
low polyreactivity

Let us now turn to "QVQLVESGGGLVQAGGSLRLSCAASGSTFDFNAMGWYRQAPGKERELVAAITGSDGNTYYADSVKGRFTISRDNAKNNVYLQMNTLTPEDTAVYYFAADFSWWSKYVVLYDYWGQGTQVTVSS"
low polyreactivity

Thanks! And "QVQLVESGGGLVQAGGSLRLSCAASGIILLRYTMGWYRQAPGKERELVAAISRSAGRTYYADSVKGRFTISRDNAKNTVYLQMNSLKPEDTAVYYCAAAFVSVRKRYGYWGHGTQVTVSS" ?
high polyreactivity

What would you report for "QVQLVESVGGLVQAGGCLRITCAASGSTSDANAMGWYRTATGKERELVAAITTGGSTNYADSVKGRFTISRDNAKNTVFLQMNSLKPEDTAVFYCAVDLLRMTGDRGHDYWGQGTQVTVSS" ?
low polyreactivity

Same question, "QLQLVESGGGLVQAGGSLRLSCAASGGIFPYYAMGWYRQAPGKEMELVAAISRSGGITYYADSVKGRFTISRDNAKNTVYLQMNSLKPEDTAVYYCAALSRWRYKRYDYWGQGTQVTVSS" this time
high polyreactivity

What about "QVQLVESGGGLVQAGGSLRLICAASGGTFYPYTMGGYRQAPGKERELVAAISRRSGRTYYADSVKGRFTISRDNAKNTVYLQMNSLKPEDTAVYYCNADGYTRAFDYWGQGTQVTVSS" ?
high polyreactivity

Then what about the sequence "QVQLVESGGGLVQAGGSLRLSCAASGYIFYYYAMGWYRQAPGKESELVAAISSTVSTNYADSVKGRFTISRDNAKNTVYLQMNSLKPEDSAVYYCAAAQRVNHVWYDYWGQGTQVTVSS" ?
low polyreactivity

Try the sequence "QVQLVESVGGLVQAGGSLRLSCAASGRTFQYNAMGWYRPAPGKERELVAAISSSGGSTYYADSVKGRFTISRDNAKNTVYLQMNSLKPEDTAVYYCNAYSQSWNFYGDGDYWGQGTQVTVSS"
low polyreactivity

Also need "QVHLVESGGGLVQAGGSLRLSSAASGLIFYHYAMGWYRQAPGNERELVAAITKRGGSTYYADSVKGRFTISRDNAKNTVYLQINSLKQEDTAVYYCAADGVRYTQSFEMYWGQGTQVTVSS" , thanks.
high polyreactivity

Another sequence to check: "QVQLVESGGGLVQAGGSLRLSCAASGRTFGYYAMGWYRQSPGKERELVAAITSGGRTYYADSVKGRFTISRDNAKNTVYLQMNSLKPEDTAVYYCNAPARWGSRVAWYEYWGQGTQVSVSS"
high polyreactivity

Same lookup for "QVQRVESGGGLVQAGGSLRLSCAASGSTLRKYVMGWYRQAPGKERELVAAISSSGGRTYYADSVKGRFTISRDNAKYTVYLQMNSLKPEDTAVYYCAATRYIPGFYYWGQGTQVTVSS" , please.
high polyreactivity

Entry to check: "QVQLVESGGGLVQAGGSLRLSCAASGSTFHRNSMGWYRQAPGKERELVASISIGGSTNYADSVKGRFTISRDNAKNTVYLQMNSLKPEDTAVYYCATEPNPRRPRVDYDYWGQGTQVTVSS"
low polyreactivity

Consider next the sequence "QVQLVESGGGLVQAGGSLRLSSAASGFIIVFYAMGWYRQAPGKERELVAAITWSGGGTYYADSVKGRCTISRDNAKNTVYLQMNSLKPEDTAVYYCNAEEPQYYYVLDKLYDFWGQGTQVTVSS" in the same way.
low polyreactivity

// repeat for "QVQLVESGGGLVQAGGSLRLSCAASGRIFVSYAMGWYRQAPGKERELVAAISRGGSTYYADSVKGRFTISRDNAKNTVYLQMNSLKPEDTAVYYCAARPSYRYGYWGQGTQVTVSS" and report
high polyreactivity

Same question, "QVQLVESGGGLVQAGGSLRLSCAASGITFRKYAMGWYRPAPGKERELVAAISSGGSRTYYADSVKGRFTISRDNAKNTVYLQMNSLKPEDTAVYYCAARKADTVFKFEYWGQGTQVTVSS" this time
high polyreactivity

Could you do the same for "QVQLVESGGGLVLPGGSLRLSCAASGITFTYNAMGWYRQAPGQERELVAAISYSGGSTYYADSVKGRFTISRDNAKNTVYLQMNSLTPEDTAVYYCARRRLLYSGGKSGYYGYYYWGQGTQVNVSS" , please?
high polyreactivity
